- MEASUREMENT DESCRIPTION: Drug uptake in C57Bl/6 mouse brain at 1.5 umol/kg, ip after 1 hr by LC-MS/MS analysis
- Format: ADME, organism-based
- EXPERIMENTAL PARAMETERS: read-out: Drug uptake
QUANTITY NAME: concentration at 1 h (ng/g)

                                   molecule         quantity_name  units_text  quantitative_readout
0  Cc1cc(OCC(=O)O)cc(C)c1Cc1ccc(O)c(C(C)C)c1  concentration at 1 h        ng/g                  2.32

---

Activity values by entry
- MEASUREMENT DESCRIPTION: Prodrug activation in C57Bl/6 mouse brain assessed as sobetirome level at 1.5 umol/kg, ip after 1 hr by LC-MS/MS analysis
- Format: organism-based
- EXPERIMENTAL PARAMETERS: in vivo
QUANTITY NAME: Activity (ng/g)

>>> print(df.to_string())
                                   compound  quantitative_readout
0  Cc1cc(OCC(=O)OC(C)CN)cc(C)c1Cc1ccc(O)c(C(C)C)c1 (stereo not given)                  5.92
1  Cc1cc(OCC(=O)OC(C)CNC(C)C)cc(C)c1Cc1ccc(O)c(C(C)C)c1 (stereo not given)                  0.48
2  Cc1cc(OCC(=O)O[C@@H](C)CN)cc(C)c1Cc1ccc(O)c(C(C)C)c1                  8.26
3  CNCC(OC(=O)COc1cc(C)c(Cc2ccc(O)c(C(C)C)c2)c(C)c1)C(C)C (stereo not given)                  1.79
4  Cc1cc(OCC(=O)OC(C)CCN)cc(C)c1Cc1ccc(O)c(C(C)C)c1 (stereo not given)                  4.46

---

- MEASUREMENT DESCRIPTION: Ratio of drug level in C57Bl/6 mouse brain to serum assessed as sobetirome level at 1.5 umol/kg, ip after 1 hr by LC-MS/MS analysis
- Type: ADME, organism-based
Ratio values by entry
QUANTITY NAME: Ratio

>>> df
                                   compound  quantitative_readout
0  Cc1cc(OCC(=O)OC(C)CCN)cc(C)c1Cc1ccc(O)c(C(C)C)c1 (centres undefined)                  0.33
1  CNCC(C)OC(=O)COc1cc(C)c(Cc2ccc(O)c(C(C)C)c2)c(C)c1 (centres undefined)                  0.23
2  Cc1cc(OCC(=O)OC(CN)C(C)C)cc(C)c1Cc1ccc(O)c(C(C)C)c1 (centres undefined)                 0.045
3  CNCCOC(=O)COc1cc(C)c(Cc2ccc(O)c(C(C)C)c2)c(C)c1                  0.21

---

- MEASUREMENT DESCRIPTION: Prodrug activation in C57Bl/6 mouse brain assessed as sobetirome level at 1.5 umol/kg, ip after 1 hr by LC-MS/MS analysis
- Format: organism-based
- EXPERIMENTAL PARAMETERS: in vivo
QUANTITY NAME: log10(Activity) (log10 of the value in ng/g)

>>> print(df.to_string())
                                   compound  quantitative_readout
0  Cc1cc(OCC(=O)OCCN)cc(C)c1Cc1ccc(O)c(C(C)C)c1                  0.69
1  Cc1cc(OCC(=O)O[C@H](C)CN)cc(C)c1Cc1ccc(O)c(C(C)C)c1                  0.91
2  CCC(CN)OC(=O)COc1cc(C)c(Cc2ccc(O)c(C(C)C)c2)c(C)c1 (centres undefined)                  0.63
3  CNCCOC(=O)COc1cc(C)c(Cc2ccc(O)c(C(C)C)c2)c(C)c1                  0.80
4  Cc1cc(OCC(=O)OC2(C(F)(F)F)CNC2)cc(C)c1Cc1ccc(O)c(C(C)C)c1                  0.71
5  CNCC(C)OC(=O)COc1cc(C)c(Cc2ccc(O)c(C(C)C)c2)c(C)c1 (centres undefined)                  0.71
6  Cc1cc(OCC(=O)OC(CN)C(F)(F)F)cc(C)c1Cc1ccc(O)c(C(C)C)c1 (centres undefined)                  0.72
7  Cc1cc(OCC(=O)OC(CN)C(C)C)cc(C)c1Cc1ccc(O)c(C(C)C)c1 (centres undefined)                  0.53
8  Cc1cc(OCC(=O)OC(C)(C)CN)cc(C)c1Cc1ccc(O)c(C(C)C)c1                 -0.40

---

- MEASUREMENT DESCRIPTION: Ratio of drug level in C57Bl/6 mouse brain to serum assessed as sobetirome level at 1.5 umol/kg, ip after 1 hr by LC-MS/MS analysis
- Format: ADME, organism-based
QUANTITY NAME: Ratio

>>> print(df.to_string())
                                   compound  quantity_name  quantitative_readout
0  Cc1cc(OCC(=O)OC(CN)C(F)(F)F)cc(C)c1Cc1ccc(O)c(C(C)C)c1 (stereo not given)          Ratio                   0.2
1  CCC(CN)OC(=O)COc1cc(C)c(Cc2ccc(O)c(C(C)C)c2)c(C)c1 (stereo not given)          Ratio                  0.41
2  Cc1cc(OCC(=O)OC(C)CNC(C)C)cc(C)c1Cc1ccc(O)c(C(C)C)c1 (stereo not given)          Ratio                  0.23
3  CNCC(OC(=O)COc1cc(C)c(Cc2ccc(O)c(C(C)C)c2)c(C)c1)C(C)C (stereo not given)          Ratio                 0.024
4  Cc1cc(OCC(=O)O[C@H](C)CN)cc(C)c1Cc1ccc(O)c(C(C)C)c1          Ratio                  0.19
5  Cc1cc(OCC(=O)OC(C)CN)cc(C)c1Cc1ccc(O)c(C(C)C)c1 (stereo not given)          Ratio                  0.21
6  Cc1cc(OCC(=O)OCCN)cc(C)c1Cc1ccc(O)c(C(C)C)c1          Ratio                 0.066
7  Cc1cc(OCC(=O)O[C@@H](C)CN)cc(C)c1Cc1ccc(O)c(C(C)C)c1          Ratio                  0.47
8  Cc1cc(OCC(=O)OC(C)(C)CN)cc(C)c1Cc1ccc(O)c(C(C)C)c1          Ratio                  1.22
9  Cc1cc(OCC(=O)OC2(C(F)(F)F)CNC2)cc(C)c1Cc1ccc(O)c(C(C)C)c1          Ratio                  0.13
